# System: biotinyl-Phe-oxazolone
# procedureDetails: self-aminoacylation, catalytic enhancement (BFO) (fold over background); higher = more active; k-Seq, kA / k0A0; sequences stand for … in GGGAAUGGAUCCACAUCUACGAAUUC…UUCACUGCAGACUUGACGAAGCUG
This sample holds only a part of the variants without activity.
readoutType: self-aminoacylation
Please reply with the value in numeric form only.

Given AUUCACCUAGGUGAUCUGGUG [Fam2.2 aminoacylation ribozyme variant] , report its self-aminoacylation on biotinyl-Phe-oxazolone.
7.54

Give measured self-aminoacylation for CUACCGCAAACAAUCGGUCUG [Fam1A.1 aminoacylation ribozyme variant] (biotinyl-Phe-oxazolone).
2.36

Give biotinyl-Phe-oxazolone self-aminoacylation for the following sequence: AAGUCUGGUAAUAGUCGCAAG [Fam3.1 aminoacylation ribozyme variant]
2.18

Report value: self-aminoacylation, system: biotinyl-Phe-oxazolone, sequence: AAGUUGGUUAAUAGUCGCAAG [Fam3.1 aminoacylation ribozyme variant]
1.87

Using biotinyl-Phe-oxazolone as the test system, report measured self-aminoacylation of AAGUGGGCUAAUAGUCGCAAG [Fam3.1 aminoacylation ribozyme variant] .
2.27

Enter measured self-aminoacylation, system biotinyl-Phe-oxazolone, for the sequence shown: AUUACCCCGGUCAUGGAGUGA [Fam2.1 aminoacylation ribozyme variant]
22.6

Lab note: record self-aminoacylation of AUUAACCUAGGUCAUAGGGUG [Fam2.2 aminoacylation ribozyme variant] tested on biotinyl-Phe-oxazolone.
1.19

Answer with self-aminoacylation of AUUCACGUAGGUCAUCUGGUG [Fam2.2 aminoacylation ribozyme variant] measured for biotinyl-Phe-oxazolone.
31.2

Name the recorded self-aminoacylation of AUUACCCUCGUCAUCGAGUAA [Fam2.1 aminoacylation ribozyme variant] , assay system biotinyl-Phe-oxazolone.
0.716

###

# Test system: biotinyl-Leu-oxazolone
# procedureDetails: self-aminoacylation, catalytic enhancement (BLO) (fold over background); higher = more active; k-Seq, kA / k0A0; sequences stand for … in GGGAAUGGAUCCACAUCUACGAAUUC…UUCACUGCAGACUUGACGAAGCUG
This sample holds only a part of the variants without activity.
readoutType: self-aminoacylation
// keep it numeric: no unit symbol after the value

State, for biotinyl-Leu-oxazolone, measured self-aminoacylation of the sequence listed here: CCACACCUCAAGCAAUCGAUC [Fam1B.1 aminoacylation ribozyme variant]
0.553

Tell me self-aminoacylation of AUUACACUGGUCCUCGAGUGA [Fam2.1 aminoacylation ribozyme variant] when tested on biotinyl-Leu-oxazolone.
4.8

Quote self-aminoacylation with test system biotinyl-Leu-oxazolone for CUAGUUCAAACAAUCGGUCUU [Fam1A.1 aminoacylation ribozyme variant]
1.26

Report self-aminoacylation from biotinyl-Leu-oxazolone testing of AUCACCCUGCUCAUCGAGUGA [Fam2.1 aminoacylation ribozyme variant]
2.67

Look up and report measured self-aminoacylation (biotinyl-Leu-oxazolone) for the following sequence: AAUCACUUAGGUCAUCGGGUG [Fam2.2 aminoacylation ribozyme variant]
7.59

Consider the sequence CUACUUCAAACAAGCGGACUG [Fam1A.1 aminoacylation ribozyme variant] tested on biotinyl-Leu-oxazolone; state its self-aminoacylation.
0.631

Look up biotinyl-Leu-oxazolone data: self-aminoacylation of AUUACCCGGGUCAUCGAGCGA [Fam2.1 aminoacylation ribozyme variant] , then report it.
2.22

Please indicate recorded self-aminoacylation of AUUCACGUAGGUCAUCGGGUU [Fam2.2 aminoacylation ribozyme variant] measured with biotinyl-Leu-oxazolone.
2.54

// fetch self-aminoacylation; item: CUACUUCAAAAAGUCGGUCUG [Fam1A.1 aminoacylation ribozyme variant] ; system: biotinyl-Leu-oxazolone
0.779

###

Please go through the items and note down their self-aminoacylation.
# System: biotinyl-Trp-oxazolone
# procedureDetails: self-aminoacylation, catalytic enhancement (BWO) (fold over background); higher = more active; k-Seq, kA / k0A0; sequences stand for … in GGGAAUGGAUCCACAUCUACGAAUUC…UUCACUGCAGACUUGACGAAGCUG
Variants at the floor of the assay were thinned out.
Field format: numeric only.

Print biotinyl-Trp-oxazolone self-aminoacylation for GUUACCCUGGCCAUCGAGUGA [Fam2.1 aminoacylation ribozyme variant] .
9.03

Give self-aminoacylation for this entry on biotinyl-Trp-oxazolone: AUUACCCUGGUCAUUGAGGGA [Fam2.1 aminoacylation ribozyme variant]
2.06

Write down the reported self-aminoacylation (system: biotinyl-Trp-oxazolone) of CUAAUUCAAACAAUUGGUCUG [Fam1A.1 aminoacylation ribozyme variant]
0.572

Report self-aminoacylation on biotinyl-Trp-oxazolone for this entry: CAACUUCAAACAAUCGGUCUU [Fam1A.1 aminoacylation ribozyme variant]
27.7

GET self-aminoacylation | system: biotinyl-Trp-oxazolone | item: ACUCACCUAGGUCAUCGGAUG [Fam2.2 aminoacylation ribozyme variant]
1.48

Look up and report self-aminoacylation, with biotinyl-Trp-oxazolone as system, for AUUCACCAAGGUCACCGGGUG [Fam2.2 aminoacylation ribozyme variant]
5.09

// fetch self-aminoacylation; item: AUUCCCCUCGUCAUCGAGUGA [Fam2.1 aminoacylation ribozyme variant] ; system: biotinyl-Trp-oxazolone
5.17

// output self-aminoacylation; input AUUCCCCUGGUCAUGGAGUGA [Fam2.1 aminoacylation ribozyme variant] ; system biotinyl-Trp-oxazolone
4.27

# return self-aminoacylation for AUUACCCUGGUCAUCGCGUGU [Fam2.1 aminoacylation ribozyme variant] , test system: biotinyl-Trp-oxazolone
8.25

Report measured self-aminoacylation on biotinyl-Trp-oxazolone; entry: CCCCACUUCAAGCAAUCGGCC [Fam1B.1 aminoacylation ribozyme variant]
11.3

Provide self-aminoacylation, system biotinyl-Trp-oxazolone, entry AUUCACCUAGGUCGGCGGGUG [Fam2.2 aminoacylation ribozyme variant]
6.02

Report the value of self-aminoacylation obtained on biotinyl-Trp-oxazolone for AUUACCCUGGACAUCGAUUGA [Fam2.1 aminoacylation ribozyme variant] .
0.675

Identify measured self-aminoacylation obtained with biotinyl-Trp-oxazolone for AUUAGCCUGUUCAUCGAGUGA [Fam2.1 aminoacylation ribozyme variant] .
7.22

Provide self-aminoacylation, recorded with biotinyl-Trp-oxazolone, of AAGUUAGCAAAUAGUCGCAAG [Fam3.1 aminoacylation ribozyme variant]
1.36

Please look at AUAACCCGGGUCAUCGAGUGA [Fam2.1 aminoacylation ribozyme variant] and tell me its recorded self-aminoacylation on biotinyl-Trp-oxazolone.
7.61

# assay system biotinyl-Trp-oxazolone: give self-aminoacylation of AAUACCCUAGUCAUCGAGUGA [Fam2.1 aminoacylation ribozyme variant]
5.18

Look up biotinyl-Trp-oxazolone data: self-aminoacylation of UUUAUCCUGGUCAUCGAGUGA [Fam2.1 aminoacylation ribozyme variant] , then report it.
11.3

Please look at GCACACUUCAAGCAACCGGUC [Fam1B.1 aminoacylation ribozyme variant] and tell me its recorded self-aminoacylation on biotinyl-Trp-oxazolone.
4.35

###

# Test system: biotinyl-Val-oxazolone
# procedureDetails: self-aminoacylation, catalytic enhancement (BVO) (fold over background); higher = more active; k-Seq, kA / k0A0; sequences stand for … in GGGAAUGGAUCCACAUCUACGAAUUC…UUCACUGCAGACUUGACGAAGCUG
This sample holds only a part of the variants without activity.
readoutType: self-aminoacylation
Note: the reply should be a number with no unit written.

Tell me measured self-aminoacylation for AUUACCCUGGUCAUCUAAUGA [Fam2.1 aminoacylation ribozyme variant] please.
0.917

State its self-aminoacylation for this sequence: AUUAACCUAGGUAAUCGGGUG [Fam2.2 aminoacylation ribozyme variant]
1.66

Entry CCACACUGCAAGCAAUCAGUC [Fam1B.1 aminoacylation ribozyme variant] needs its self-aminoacylation filled in; supply it.
0.741

Give reported self-aminoacylation value for CCACACUUCAAGCAUUCGAUC [Fam1B.1 aminoacylation ribozyme variant]
0.856

Supply reported self-aminoacylation belonging to this sequence: CGACUUCAAACAAUCCGUCUG [Fam1A.1 aminoacylation ribozyme variant]
1.18

# return recorded self-aminoacylation for entry GAGUUUGCUACUAGUCGCAAG [Fam3.1 aminoacylation ribozyme variant]
1.47

Give self-aminoacylation for CGACUCUUCAAGCAAUCGGUC [Fam1B.1 aminoacylation ribozyme variant]
1.32

Identify the reported self-aminoacylation for the following entry. CUACAGCAAACAAUCGGUCUG [Fam1A.1 aminoacylation ribozyme variant]
0.65

Please report the measured self-aminoacylation for AUUAACCUAGGUCAUCAGGUG [Fam2.2 aminoacylation ribozyme variant]
1.48

Identify measured self-aminoacylation associated with AUGUUUUCUAAUAGUCGCAAG [Fam3.1 aminoacylation ribozyme variant]
1.2

Answer with the recorded self-aminoacylation of CUACUCCAAACAAUCGGUCUU [Fam1A.1 aminoacylation ribozyme variant] only.
0.958

Return value of self-aminoacylation for input CAACUUCAAAUAAUCGGUCUG [Fam1A.1 aminoacylation ribozyme variant] , no commentary.
1.11

State its self-aminoacylation: GCACUUCAAACAAUCGGUCUG [Fam1A.1 aminoacylation ribozyme variant]
2.16

Report measured self-aminoacylation; entry is AUUACCCCGGUCAUCGAGUUA [Fam2.1 aminoacylation ribozyme variant]
0.938

Specify measured self-aminoacylation for AUUACCCCGAUCAUCGAGUGA [Fam2.1 aminoacylation ribozyme variant] .
3.77

Give reported self-aminoacylation value for AUGAGCCUGGUCAUCGAGUGA [Fam2.1 aminoacylation ribozyme variant]
3.71

Quick one: give measured self-aminoacylation for GUACUUCAAACAAACGGUCUG [Fam1A.1 aminoacylation ribozyme variant]
1.15

Retrieve self-aminoacylation measured for AUUACCCUGCUCAUCGAGUCA [Fam2.1 aminoacylation ribozyme variant] and print it.
0.819

Provide only the value of recorded self-aminoacylation for AAGAUUGCUAAUAGUCGCAAU [Fam3.1 aminoacylation ribozyme variant]
1.41

Report measured self-aminoacylation; entry is CAACACUUCAAGCCAUCGGUC [Fam1B.1 aminoacylation ribozyme variant]
1.48

For CUACUUCAUACAAACGGUCUG [Fam1A.1 aminoacylation ribozyme variant] , write its self-aminoacylation.
0.803

For ACUCACCUAGGUCAUCUGGUG [Fam2.2 aminoacylation ribozyme variant] , write its self-aminoacylation.
1.57

Provide measured self-aminoacylation value, entry: CUACUUCAUACAAUCGCUCUG [Fam1A.1 aminoacylation ribozyme variant]
0.627

Specify measured self-aminoacylation for AUGUUUGCUAAUAGUCGCCAG [Fam3.1 aminoacylation ribozyme variant] .
1.29

Name the recorded self-aminoacylation of the sequence listed here: AAGUUUGCUAAUAGUCGAAUG [Fam3.1 aminoacylation ribozyme variant]
0.903

Respond only with self-aminoacylation recorded for UCACACUUCAAGCAAUCGGUA [Fam1B.1 aminoacylation ribozyme variant]
1.12

For the sequence AUUACUCUUGUCAUCGAGUGA [Fam2.1 aminoacylation ribozyme variant] , give its reported self-aminoacylation.
3.45

Answer with the recorded self-aminoacylation for the sequence listed here: CUAAUUCAAACAAUCGGUCUU [Fam1A.1 aminoacylation ribozyme variant]
0.716

Please supply the value of reported self-aminoacylation for the item GUACUUCAAACUAUCGGUCUG [Fam1A.1 aminoacylation ribozyme variant]
1.26

Read off the recorded self-aminoacylation for AAGUUUGCUAAUAGACGCGAG [Fam3.1 aminoacylation ribozyme variant]
0.64

Identify self-aminoacylation associated with the sequence CCACACUUCGAGCAAGCGGUC [Fam1B.1 aminoacylation ribozyme variant]
1.19

Return self-aminoacylation for the following sequence: CUACUUCAAACAAUCAGUCUC [Fam1A.1 aminoacylation ribozyme variant]
0.904

Complete the entry with self-aminoacylation for GUUCGCCUAGGUCAUCGGGUG [Fam2.2 aminoacylation ribozyme variant]
10.2

Return self-aminoacylation for the following sequence: AAUCACCUAGGUCAACGGGUG [Fam2.2 aminoacylation ribozyme variant]
2.77

Return value of self-aminoacylation for input UAGUUUGCUAAUAGUCCCAAG [Fam3.1 aminoacylation ribozyme variant] , no commentary.
0.864
